Ref: ChEMBL document CHEMBL3784931

Test: Acute toxicity in ICR mouse assessed as mortality at 2133.30 mg/kg, ig administered daily for 2 weeks measured during compound dosing
Type: organism-based
Settings: in vivo, po, 2133.3 mg/kg
METRIC NAME: mortality at 336 h (%)
A number alone suffices; assume %.

Inquiry: GET /values?readout=mortality at 336 h&item= CCCCc1nc(Cl)c(C(=O)O)n1Cc1ccc(-c2ccccc2-c2noc(=O)[nH]2)cc1
Reply text: 20

====

Experiment: Terminal half life in Wistar rat plasma at 10 mg/kg, po after 0.5 to 72 hrs by HPLC analysis
Assay type: ADME, organism-based
Conditions: read-out: beta t1/2 (converted)
METRIC NAME: half-life (h)
A number alone suffices; assume h.

Inquiry: GET /values?readout=half-life&item= CCCCc1nc(Cl)c(C(=O)O)n1Cc1ccc(-c2ccccc2-c2noc(=O)[nH]2)cc1
Reply text: 18.2

====

Assay: AUC (0 to 72 hrs) in Wistar rat plasma at 10 mg/kg, po by HPLC analysis
Format: ADME, organism-based
Parameters: dose 10 mg/kg, time < 72 hr, route oral
METRIC NAME: AUC(0-t) at 72 h (ng·h/mL)
A number alone suffices; assume ng·h/mL.

Inquiry: GET /values?readout=AUC(0-t) at 72 h&item= CCCCc1nc(Cl)c(C(=O)O)n1Cc1ccc(-c2ccccc2-c2noc(=O)[nH]2)cc1
Reply text: 296

====

Assay: Elimination rate constant in Wistar rat stomach at 10 mg/kg, po after 0.5 to 72 hrs by HPLC analysis
Type: ADME, organism-based
METRIC NAME: k el

Inquiry: GET /values?readout=k el&item= CCCCc1nc(Cl)c(C(=O)O)n1Cc1ccc(-c2ccccc2-c2noc(=O)[nH]2)cc1
Reply text: 1.39e-05 s⁻¹

====

Test: Terminal half life in Wistar rat heart at 10 mg/kg, po after 0.5 to 72 hrs by HPLC analysis
Assay type: ADME, organism-based
Conditions: read-out: beta t1/2 (converted)
METRIC NAME: half-life (h)
A number alone suffices; assume h.

Inquiry: GET /values?readout=half-life&item= CCCCc1nc(Cl)c(C(=O)O)n1Cc1ccc(-c2ccccc2-c2noc(=O)[nH]2)cc1
Reply text: 9.13

====

Experiment: Terminal half life in Wistar rat spleen at 10 mg/kg, po after 0.5 to 72 hrs by HPLC analysis
Assay type: ADME, organism-based
Conditions: read-out: beta t1/2 (converted)
METRIC NAME: half-life (h)
A number alone suffices; assume h.

Inquiry: GET /values?readout=half-life&item= CCCCc1nc(Cl)c(C(=O)O)n1Cc1ccc(-c2ccccc2-c2noc(=O)[nH]2)cc1
Reply text: 8.74

====

Test: Tmax in Wistar rat plasma at 10 mg/kg, po after 0.5 to 72 hrs by HPLC analysis
Format: ADME, organism-based
METRIC NAME: Tmax (h)
A number alone suffices; assume h.

Inquiry: GET /values?readout=Tmax&item= CCCCc1nc(Cl)c(C(=O)O)n1Cc1ccc(-c2ccccc2-c2noc(=O)[nH]2)cc1
Reply text: 2

====

Assay: Acute toxicity in ICR mouse assessed as mortality at 1200 mg/kg, ig administered daily for 2 weeks measured during compound dosing
Format: organism-based
Settings: in vivo, po
METRIC NAME: mortality at 336 h (%)
A number alone suffices; assume %.

Inquiry: GET /values?readout=mortality at 336 h&item= CCCCc1nc(Cl)c(C(=O)O)n1Cc1ccc(-c2ccccc2-c2noc(=O)[nH]2)cc1
Reply text: 0

====

Assay: Tmax in Wistar rat liver at 10 mg/kg, po after 0.5 to 72 hrs by HPLC analysis
Assay type: ADME, organism-based
METRIC NAME: Tmax (min)
A number alone suffices; assume min.

Inquiry: GET /values?readout=Tmax&item= CCCCc1nc(Cl)c(C(=O)O)n1Cc1ccc(-c2ccccc2-c2noc(=O)[nH]2)cc1
Reply text: 30

====

Assay: Terminal half life in Wistar rat liver at 10 mg/kg, po after 0.5 to 72 hrs by HPLC analysis
Assay type: ADME, organism-based
Details: read-out: beta t1/2 (converted)
METRIC NAME: half-life (h)
A number alone suffices; assume h.

Inquiry: GET /values?readout=half-life&item= CCCCc1nc(Cl)c(C(=O)O)n1Cc1ccc(-c2ccccc2-c2noc(=O)[nH]2)cc1
Reply text: 10.7

====

Assay: Acute toxicity in ICR mouse assessed as mortality administered intragastrically daily for 2 weeks measured during compound dosing
Format: organism-based
Details: in vivo, po
METRIC NAME: LD50 at 336 h (mg/kg)
A number alone suffices; assume mg/kg.

Inquiry: GET /values?readout=LD50 at 336 h&item= CCCCc1nc(Cl)c(C(=O)O)n1Cc1ccc(-c2ccccc2-c2noc(=O)[nH]2)cc1
Reply text: 2970

====

Target: Type-1 angiotensin II receptor A (Rattus norvegicus, UniProt P25095)
Sequence (P25095 whole entry): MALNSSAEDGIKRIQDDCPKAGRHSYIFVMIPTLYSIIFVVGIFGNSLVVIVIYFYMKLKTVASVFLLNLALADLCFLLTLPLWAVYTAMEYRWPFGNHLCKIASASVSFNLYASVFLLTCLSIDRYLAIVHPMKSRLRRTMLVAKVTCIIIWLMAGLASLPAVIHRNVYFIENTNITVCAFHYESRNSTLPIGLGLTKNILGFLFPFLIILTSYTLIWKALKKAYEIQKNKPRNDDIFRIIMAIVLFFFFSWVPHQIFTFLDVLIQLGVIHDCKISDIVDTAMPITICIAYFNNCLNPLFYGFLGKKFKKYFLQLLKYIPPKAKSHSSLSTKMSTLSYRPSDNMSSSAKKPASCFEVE
Assay: Displacement of [125I]-Ang II from Angiotensin 2 type-1A receptor in rat vascular smooth muscle cells after 150 mins by gamma counting method
METRIC NAME: IC50 (nM)
A number alone suffices; assume nM.

Reference set, count: 2
[[record]]
molecule_smiles = "CCCCc1nc(Cl)c(C(=O)O)n1Cc1ccc(-c2ccccc2-c2noc(=O)[nH]2)cc1"
metric_name = "IC50"
endpoint_result = 3.16

[[record]]
molecule_smiles = "CCCCc1nc(Cl)c(CO)n1Cc1ccc(-c2ccccc2-c2noc(=O)[nH]2)cc1"
metric_name = "IC50"
endpoint_result = 5.94


Here is another compound to look at.
Inquiry: GET /values?readout=IC50&item= CCCCc1nc(Cl)c(C=O)n1Cc1ccc(-c2ccccc2-c2noc(=O)[nH]2)cc1
Reply text: 4.32

====

Assay: Cmax in Wistar rat heart at 10 mg/kg, po after 0.5 to 72 hrs by HPLC analysis
Assay type: ADME, organism-based
Set-up: dose 10 mg/kg, route oral
METRIC NAME: Cmax (ng/g)
A number alone suffices; assume ng/g.

Inquiry: GET /values?readout=Cmax&item= CCCCc1nc(Cl)c(C(=O)O)n1Cc1ccc(-c2ccccc2-c2noc(=O)[nH]2)cc1
Reply text: 8.87
